Sourced from PubChem BioAssay (NCI)

# Test system: SNB-75 CNS
# experiment_description: NCI tumour cell line growth inhibition, 48 h; in the data active means GI50 below about 0.43 µM; inactive means the rest
Respond using exactly one of the listed classes: 1 for active, -1 for inactive

Record excerpt, results attached:
[[record]]
smi = "Cc1[nH]ccc2cc3nc4ccccc4c3cc12"
classification = -1

[[record]]
smi = "COc1cc(/C=N/O)nc(-c2ccccn2)c1"
classification = -1


Dear colleague, could you share the recorded outcome for `CCOC(=O)c1cn2ncnc(Oc3ccc(NC(=O)NCCN(CC)CC)c(Cl)c3)c2c1C` when you have a moment?
-1

Queued: `CC(C)(C)n1cc(-c2ccnc(NCCCNS(=O)(=O)c3ccc(Cl)cc3)c2)c(-c2cccc(O)c2)n1`
-1

Queued: `NCCCn1c2c(c3ccc([N+](=O)[O-])cc3c1=O)C(=O)c1cc(Cl)ccc1-2`
1

Queued: `COC(=O)C1=C2CO[C@@H]3C[C@H]4C(C)(C)CCC[C@]4(C)C(=CC1)[C@]23C`
-1

Queued: `CC(=O)[CH-]C(=O)c1ccccc1.CC(=O)[CH-]C(=O)c1ccccc1.CC[O-].O=C1C=C([O-])C(=O)c2ccccc21.[Ti+4]`
-1

Queued: `CC(=O)[CH-]C(=O)c1ccccc1.CC(=O)[CH-]C(=O)c1ccccc1.CC12CC3(C)CC(C)(C1)CC([O-])(C2)C3.CC[O-].[Ti+4]`
-1

Queued: `O=C1C(Cl)=C(Nc2ccc3c(c2NC2=C(Cl)C(=O)c4ccccc4C2=O)C(=O)c2ccccc2C3=O)C(=O)c2ccccc21`
-1
